Tested on: Panel leukemia (Carcinoma cell lines)
PROCEDURE_DETAILS: Anticancer activity against leukemia cancer cell lines of NCI60 panel
Assay type: functional
SETUP_CONDITIONS: Homo sapiens
Structures can show the parent of a compound that is named as a salt.

{"COMPOUND": "COc1cc(/C=C2/C(=O)Nc3ccc(F)cc32)cc(OC)c1OC", "TARGET_SYSTEM": "Panel leukemia (Carcinoma cell lines)", "GI50, µM": 14.1}
{"COMPOUND": "COc1ccc2c(c1)/C(=C\\c1cc(OC)c(OC)c(OC)c1)C(=O)N2", "TARGET_SYSTEM": "Panel leukemia (Carcinoma cell lines)", "GI50, µM": 0.0871}
{"COMPOUND": "COc1cc(/C=C2/C(=O)Nc3ccc(O)cc32)cc(OC)c1OC", "TARGET_SYSTEM": "Panel leukemia (Carcinoma cell lines)", "GI50, µM": 3.02}
{"COMPOUND": "COc1cc(/C=C2/C(=O)Nc3cccc(Cl)c32)cc(OC)c1OC", "TARGET_SYSTEM": "Panel leukemia (Carcinoma cell lines)", "GI50, µM": 2.4}
{"COMPOUND": "COc1cc(/C=C2/C(=O)Nc3ccccc32)cc(OC)c1OC", "TARGET_SYSTEM": "Panel leukemia (Carcinoma cell lines)", "GI50, µM": 7.59}
{"COMPOUND": "CC[C@]1(O)C[C@H]2CN(CCc3c([nH]c4ccccc34)[C@@](C(=O)OC)(c3cc4c(cc3OC)N(C=O)[C@H]3[C@@](O)(C(=O)OC)[C@H](OC(C)=O)[C@]5(CC)C=CCN6CC[C@]43[C@@H]65)C2)C1 [VINCRISTINE SULFATE]", "TARGET_SYSTEM": "Panel leukemia (Carcinoma cell lines)", "GI50, µM": 0.1}
{"COMPOUND": "COc1cc(/C=C2/C(=O)N(c3ccccc3)c3ccccc32)cc(OC)c1OC", "TARGET_SYSTEM": "Panel leukemia (Carcinoma cell lines)", "GI50, µM": 2.29}
{"COMPOUND": "COc1cc(/C=C2/C(=O)Nc3ccc(Cl)cc32)cc(OC)c1OC", "TARGET_SYSTEM": "Panel leukemia (Carcinoma cell lines)", "GI50, µM": 8.71}
{"COMPOUND": "COc1cc2c(cc1C)NC(=O)/C2=C/c1cc(OC)c(OC)c(OC)c1", "TARGET_SYSTEM": "Panel leukemia (Carcinoma cell lines)", "GI50, µM": 18.2}
{"COMPOUND": "COc1cc(/C=C2/C(=O)N(C)c3ccccc32)cc(OC)c1OC", "TARGET_SYSTEM": "Panel leukemia (Carcinoma cell lines)", "GI50, µM": 7.24}
